- target-system: Cholinesterase (Homo sapiens)
- experiment-notes: Inhibition of human serum BuChE using butyrylthiocholine as substrate preincubated for 5 mins followed by substrate addition measured for 5 mins by Ellman's method
Sorting guide: entries reporting IC50 beneath 800 nM go in the Satisfied pile, the rest go in the Not satisfied pile.

# sample-smiles, group-label
rows = [
    ("O=C(/C=C/c1cccc(O)c1)NCCC1CCN(Cc2ccccc2)CC1", "Not satisfied"),
    ("O=C(/C=C/c1ccc(O)c(O)c1)NCCC1CCN(Cc2ccccc2)CC1", "Satisfied"),
    ("O=C(/C=C/c1ccc(O)cc1O)NCCC1CCN(Cc2ccccc2)CC1", "Satisfied"),
]

Data request: Check if IC50 falls below 800 nM for COc1ccc(/C=C/C(=O)Nc2ccc(CN(C)Cc3ccccc3)cc2)cc1OC .
Data returned: Not satisfied

Data request: Check if IC50 falls below 800 nM for COc1ccc(/C=C/C(=O)Nc2ccc(CN(C)Cc3ccccc3)cc2)c(OC)c1 .
Data returned: Not satisfied

Data request: Check if IC50 falls below 800 nM for O=C(/C=C/c1ccc(O)cc1)NCCC1CCN(Cc2ccccc2)CC1 .
Data returned: Not satisfied

Data request: Check if IC50 falls below 800 nM for COc1ccc(/C=C/C(=O)NCCC2CCN(Cc3ccccc3)CC2)cc1 .
Data returned: Satisfied

* * *

- target-system: Amine oxidase [flavin-containing] A (Homo sapiens, UniProt P21397)
- Sequence (P21397 whole entry): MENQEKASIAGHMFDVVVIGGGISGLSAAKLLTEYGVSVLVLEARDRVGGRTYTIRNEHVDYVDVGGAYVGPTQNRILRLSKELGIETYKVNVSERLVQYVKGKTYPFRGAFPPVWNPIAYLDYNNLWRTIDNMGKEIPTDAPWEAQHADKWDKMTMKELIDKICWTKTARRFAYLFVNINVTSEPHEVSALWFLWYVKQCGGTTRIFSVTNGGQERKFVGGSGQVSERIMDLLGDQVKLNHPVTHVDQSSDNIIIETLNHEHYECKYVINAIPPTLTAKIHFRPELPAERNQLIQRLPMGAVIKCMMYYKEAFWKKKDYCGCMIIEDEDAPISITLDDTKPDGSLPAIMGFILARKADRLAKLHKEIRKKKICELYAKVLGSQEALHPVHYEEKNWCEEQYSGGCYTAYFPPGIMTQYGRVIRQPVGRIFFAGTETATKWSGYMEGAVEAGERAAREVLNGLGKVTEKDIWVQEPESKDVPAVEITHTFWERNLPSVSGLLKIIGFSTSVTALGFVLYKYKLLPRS
- experiment-notes: Inhibition of human recombinant MAOA using p-tyramine as substrate incubated for 15 mins by fluorimetric method
pIC50: −log10 of the molar value.
# pIC50 >= 5 gives met, anything below gives not met

# sample-smiles, group-label
rows = [
    ("COc1ccc(/C=C/C(=O)NCCC2CCN(Cc3ccccc3)CC2)cc1OC", "not met"),
    ("O=C(/C=C/c1ccc(O)cc1)NCCC1CCN(Cc2ccccc2)CC1", "not met"),
    ("O=C(/C=C/c1ccc(O)c(O)c1)NCCC1CCN(Cc2ccccc2)CC1", "met"),
    ("CN(Cc1ccccc1)Cc1ccc(NC(=O)/C=C/c2ccc(O)cc2)cc1", "not met"),
    ("COc1cc(/C=C/C(=O)Nc2cccc(CN(C)Cc3ccccc3)c2)ccc1O", "met"),
    ("COc1ccc(/C=C/C(=O)Nc2ccc(CN(C)Cc3ccccc3)cc2)c(OC)c1", "not met"),
    ("COc1ccc(/C=C/C(=O)Nc2ccc(CN(C)Cc3ccccc3)cc2)cc1", "not met"),
    ("COc1ccc(/C=C/C(=O)NCCC2CCN(Cc3ccccc3)CC2)c(OC)c1", "not met"),
]

Data request: In plain terms: is recorded pIC50 at least 5 for O=C(/C=C/c1ccc(O)cc1O)NCCC1CCN(Cc2ccccc2)CC1 ?
Data returned: met

Data request: In plain terms: is recorded pIC50 at least 5 for COc1cccc(/C=C/C(=O)Nc2ccc(CN(C)Cc3ccccc3)cc2)c1 ?
Data returned: not met

* * *

- target-system: Cholinesterase (Homo sapiens, UniProt P06276)
- Sequence (P06276 whole entry): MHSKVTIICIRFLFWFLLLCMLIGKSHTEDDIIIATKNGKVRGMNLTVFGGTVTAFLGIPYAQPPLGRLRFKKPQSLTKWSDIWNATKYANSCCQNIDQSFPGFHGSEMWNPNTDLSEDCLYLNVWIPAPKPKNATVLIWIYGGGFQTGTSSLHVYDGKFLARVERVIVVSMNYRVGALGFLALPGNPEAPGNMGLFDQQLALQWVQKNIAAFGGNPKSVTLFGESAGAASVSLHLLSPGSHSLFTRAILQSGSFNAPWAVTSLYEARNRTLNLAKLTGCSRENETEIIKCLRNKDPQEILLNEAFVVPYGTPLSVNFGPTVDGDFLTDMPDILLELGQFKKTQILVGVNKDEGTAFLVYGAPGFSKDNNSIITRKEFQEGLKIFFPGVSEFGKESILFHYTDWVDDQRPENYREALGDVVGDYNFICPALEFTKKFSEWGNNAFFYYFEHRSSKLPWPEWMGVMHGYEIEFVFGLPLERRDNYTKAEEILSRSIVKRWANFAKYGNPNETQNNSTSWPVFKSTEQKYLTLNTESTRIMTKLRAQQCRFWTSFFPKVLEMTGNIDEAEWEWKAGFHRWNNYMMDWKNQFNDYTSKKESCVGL
- experiment-notes: Inhibition of human serum BuChE at 10 uM using butyrylthiocholine as substrate preincubated for 5 mins followed by substrate addition measured for 5 mins by Ellman's method relative to control
Answer each item with its documented inhibition.
Answers are plain numbers, in %.

# sample-smiles, endpoint, reported-value
records = [
    ("CN(Cc1ccccc1)Cc1ccc(NC(=O)/C=C/c2cccc(O)c2)cc1", "inhibition", 46),
    ("COc1cc(/C=C/C(=O)Nc2ccc(CN(C)Cc3ccccc3)cc2)ccc1O", "inhibition", 45),
    ("CN(Cc1ccccc1)Cc1ccc(NC(=O)/C=C/c2ccc(O)cc2)cc1", "inhibition", 30),
    ("COc1ccc(/C=C/C(=O)Nc2ccc(CN(C)Cc3ccccc3)cc2)cc1", "inhibition", 25),
]

Now turn to the next molecule.
Form field inhibition for item COc1cccc(/C=C/C(=O)Nc2ccc(CN(C)Cc3ccccc3)cc2)c1 on Cholinesterase (Homo sapiens, UniProt P06276): 35
